The values you see were collected from ChEMBL document CHEMBL1154265.

# Tested on: Bel-7402
# test description: Cytotoxicity against human Bel7402 cells after 72 hrs by sulforhodamine B assay
# Type: functional, cell-based
# assay context: Bel-7402, 72 h
observation type: IC50 (µM)

{"columns": ["molecule", "readout number"],
 "data": [
  ["CC(=O)O[C@@H]1CC[C@@]2(C)O[C@@H](O)[C@@]1(C)C2CC[C@@]12[C@@H]3NC4C(CC[C@@]45CCC[C@H]51)[C@]2(C)CC[C@@H]3C(C)C (stereo partly specified)", 9.7]
]}

====

# Test system: HMEC
# test description: Cytotoxicity against human HMEC cells after 72 hrs by sulforhodamine B assay
# Assay type: cell-based
# assay context: human, hmec

{"columns": ["compound", "target or test system", "Activity"],
 "data": [
  ["COC(=O)[C@@H]1C[C@@]23C(=O)[C@@H]4C[C@H]5N(C[C@@H](CCC6=C2[C@@H]1CC6)[C@]53COC(C)=O)C[C@H]4C", "HMEC", "Non-toxic"],
  ["CC(C)[C@H]1CC[C@@]2(C)[C@@H]3C[C@@H](O)[C@]45CCC[C@H]4[C@@]2(CCC(=O)[C@]2(C)CO[C@]4(C)CCC2O4)[C@@H]1N5C3 [HYDROXYCODAPHNIPHYLLINE]", "HMEC", "Non-toxic"],
  ["COC(=O)CC[C@]12C3=CCC[C@@H]3CC[C@@H]3C=N[C@@H]1[C@@H](C(C)C)CC[C@@]32C", "HMEC", "Non-toxic"],
  ["CC[C@@]1(O)CC[C@@]2(CO1)[C@H]1CCC3=C4[C@H](C[C@@H]3O)[C@H](C(=O)OC)C[C@@]42CN(C)C1", "HMEC", "Non-toxic"]
]}
